These measurements were taken from patent USRE47150.

experimental_system: T1, human tissue factor pathway inhibitor (TFPI) (human, UniProt P10646 29-304, limits assumed)
T1 construct: bought; also called hTFPI; human TFPI
T1 sequence (looked up): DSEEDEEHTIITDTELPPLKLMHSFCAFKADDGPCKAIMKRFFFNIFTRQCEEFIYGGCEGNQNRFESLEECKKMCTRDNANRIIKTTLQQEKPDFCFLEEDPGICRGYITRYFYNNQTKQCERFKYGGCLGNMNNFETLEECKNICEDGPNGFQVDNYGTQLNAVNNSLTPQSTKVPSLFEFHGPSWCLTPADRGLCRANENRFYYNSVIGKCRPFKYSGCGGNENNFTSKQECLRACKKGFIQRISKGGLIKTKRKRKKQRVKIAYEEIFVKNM
assay_notes: competitive ELISA
value_type: variant/HC_D62R (ratio)

4B7 HC Q1E+N32D+G44S+K55Y+D62R+Y112D/LC V30L+S32R+N35I+T36N (Fab, V domains shown) VH: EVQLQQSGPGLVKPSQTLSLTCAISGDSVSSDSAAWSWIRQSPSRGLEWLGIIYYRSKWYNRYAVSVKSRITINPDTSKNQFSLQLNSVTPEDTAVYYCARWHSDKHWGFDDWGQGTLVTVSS VL: DIVMTQSPLSLPVTPGEPASISCRSSQSLLFRDGINYLNWYLQKPGQSPQLLIYKGSNRASGVPDRFSGSGSGTDFTLKISRVEAEDVGVYYCQQYDSYPLTFGQGTKVEIKR = 23
